Endpoint summary: pIC50, system: human GST-DYRK1A (Homo sapiens, UniProt Q13627), multiple sources combined.
pIC50: −log10 of the molar value.

[[record]]
structure_notation = "COc1ccccc1-c1n[nH]c2ncc(-c3ccoc3)cc12"
quantity_kind = "pIC50"
measured_result = "> 6.30"

[[record]]
structure_notation = "CC(C)c1cnn2c(NCc3ccc(-c4ccccc4)nc3)nc(N[C@H](CO)[C@@H](C)O)nc12"
quantity_kind = "pIC50"
measured_result = 5.89

[[record]]
structure_notation = "CCCCNc1nc(Nc2ccc(C(=O)N3CCN(C4COC4)CC3)c3c2OCCO3)nc2[nH]cc(C(F)(F)F)c12"
quantity_kind = "pIC50"
measured_result = "> 7.00"

[[record]]
structure_notation = "COc1cc(P2(=O)CCN(C3COC3)CC2)ccc1Nc1nc(NC2CC2)c2c(C#N)c[nH]c2n1"
quantity_kind = "pIC50"
measured_result = "6.00 to 6.52"

[[record]]
structure_notation = "CC(C)CNc1nc(Nc2ccc(C(=O)N3CCC(N4CCOCC4)CC3)c3c2OCC3)nc2[nH]cc(C#N)c12"
quantity_kind = "pIC50"
measured_result = "6.00 to 6.52"


Sample `C=CCN(C)Cc1cnc2[nH]cc(-c3cc(F)c4nccc(-c5cccnc5)c4c3)c2c1` , system: human GST-DYRK1A (Homo sapiens, UniProt Q13627). Its pIC50 is 7.00 to 8.00

Sample `CCNc1nc(Nc2ccc(P3(=O)CCN(C4COC4)CC3)cc2OC)nc2[nH]cc(C(F)(F)F)c12` , system: human GST-DYRK1A (Homo sapiens, UniProt Q13627). Its pIC50 is > 7.00

Sample `Clc1ccnc2ccc(-c3c[nH]c4ncccc34)cc12` , system: human GST-DYRK1A (Homo sapiens, UniProt Q13627). Its pIC50 is 7.00 to 8.00

* * *

Endpoint summary: IC50, system: human GST-DYRK1A (Homo sapiens, UniProt Q13627), multiple sources combined.

[[record]]
compound = "COc1cc(S(=O)(=O)N2CCC(N3CCOCC3)CC2)ccc1Nc1cc(NCC(C)C)c2c(C(F)(F)F)c[nH]c2n1"
measured_result = "301 to 1000 nM"


Sample `CC[C@@H](C)Nc1nc(Nc2ccc(S(=O)(=O)N3CCC(N4CCOCC4)CC3)cc2OC)nc2[nH]cc(C(F)(F)F)c12` , system: human GST-DYRK1A (Homo sapiens, UniProt Q13627). Its IC50 is 301 to 1000 nM

Sample `N#Cc1c[nH]c2nc(Nc3ccc(C(=O)N4CCOCC4)c4c3OCCO4)nc(NCC3CCC3)c12` , system: human GST-DYRK1A (Homo sapiens, UniProt Q13627). Its IC50 is 301 to 1000 nM

Sample `COCCNc1nc(Nc2ccc(C(=O)N3CCOCC3)c3c2OCCO3)nc2[nH]cc(C#N)c12` , system: human GST-DYRK1A (Homo sapiens, UniProt Q13627). Its IC50 is 101 to 300 nM

Sample `COCCNc1nc(Nc2ccc(P(C)(C)=O)cc2OC)nc2[nH]cc(C#N)c12` , system: human GST-DYRK1A (Homo sapiens, UniProt Q13627). Its IC50 is 301 to 1000 nM

Sample `COc1cc(P2(=O)CCN(C3CC3)CC2)ccc1Nc1nc(N[C@@H]2CCOC2)c2c(C#N)c[nH]c2n1` , system: human GST-DYRK1A (Homo sapiens, UniProt Q13627). Its IC50 is 301 to 1000 nM

Sample `COc1cc(S(C)(=O)=O)ccc1Nc1nc(NC2CCCC2)c2cc[nH]c2n1` , system: human GST-DYRK1A (Homo sapiens, UniProt Q13627). Its IC50 is 301 to 1000 nM

Sample `COc1cc(S(=O)(=O)N2CCOCC2)ccc1Nc1cc(NC(C)C)c2c(Cl)c[nH]c2n1` , system: human GST-DYRK1A (Homo sapiens, UniProt Q13627). Its IC50 is 301 to 1000 nM

Sample `CCc1cnn2c(NCc3ccc(-c4ccccn4)cc3)nc(NC[C@@H](O)CO)nc12` , system: human GST-DYRK1A (Homo sapiens, UniProt Q13627). Its IC50 is 710 nM

Sample `COc1cc(S(C)(=O)=O)ccc1Nc1nc(NCC2CC2)c2c(C#N)c[nH]c2n1` , system: human GST-DYRK1A (Homo sapiens, UniProt Q13627). Its IC50 is 301 to 1000 nM

Sample `COCCNc1cc(Nc2ccc(S(C)(=O)=O)cc2OC)nc2[nH]cc(C#N)c12` , system: human GST-DYRK1A (Homo sapiens, UniProt Q13627). Its IC50 is 301 to 1000 nM

Sample `COCCNc1nc(Nc2ccc(C(=O)N3C[C@@H]4C[C@H]3CO4)c3c2OCCO3)nc2[nH]cc(C(F)(F)F)c12` , system: human GST-DYRK1A (Homo sapiens, UniProt Q13627). Its IC50 is < 100 nM

Sample `O=C(c1ccc(O)c(O)c1)c1nc2c(O)ccc(O)c2s1` , system: human GST-DYRK1A (Homo sapiens, UniProt Q13627). Its IC50 is 229 nM

Sample `CC(C)Nc1nc(Nc2ccc(C(=O)N3CCN(C4COC4)CC3)c3c2OCCO3)nc2[nH]cc(C(F)(F)F)c12` , system: human GST-DYRK1A (Homo sapiens, UniProt Q13627). Its IC50 is 101 to 300 nM

Sample `CCNc1cc(Nc2ccc(C(=O)N3CCO[C@H](C)C3)c3c2OCC3)nc2[nH]cc(C(F)(F)F)c12` , system: human GST-DYRK1A (Homo sapiens, UniProt Q13627). Its IC50 is < 100 nM
